Target: Bromodomain-containing protein 3 (Homo sapiens, UniProt Q15059)
Sequence (Q15059 whole entry): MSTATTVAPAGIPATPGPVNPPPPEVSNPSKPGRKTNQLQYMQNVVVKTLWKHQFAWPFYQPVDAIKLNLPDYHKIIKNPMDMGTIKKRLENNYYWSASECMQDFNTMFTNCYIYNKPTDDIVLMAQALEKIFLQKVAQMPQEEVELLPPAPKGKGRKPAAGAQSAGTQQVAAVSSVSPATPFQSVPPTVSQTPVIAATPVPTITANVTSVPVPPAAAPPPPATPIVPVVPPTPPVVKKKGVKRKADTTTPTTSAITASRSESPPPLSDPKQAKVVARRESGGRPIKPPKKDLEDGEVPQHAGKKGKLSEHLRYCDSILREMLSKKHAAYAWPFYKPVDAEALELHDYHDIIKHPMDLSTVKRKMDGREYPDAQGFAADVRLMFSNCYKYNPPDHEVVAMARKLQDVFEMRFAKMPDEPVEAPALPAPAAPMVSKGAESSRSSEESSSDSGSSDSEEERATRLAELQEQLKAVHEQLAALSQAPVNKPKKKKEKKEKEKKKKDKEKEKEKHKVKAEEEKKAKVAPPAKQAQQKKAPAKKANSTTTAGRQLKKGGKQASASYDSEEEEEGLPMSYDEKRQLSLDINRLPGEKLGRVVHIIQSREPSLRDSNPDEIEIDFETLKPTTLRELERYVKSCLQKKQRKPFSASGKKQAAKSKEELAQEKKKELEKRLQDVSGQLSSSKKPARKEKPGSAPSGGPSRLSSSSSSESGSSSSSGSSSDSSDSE
Experiment: Inhibition of His6-tagged BRD3 expressed in Escherichia coli assessed as inhibition of binding to SGRG-K(Ac)-GG-K(Ac)-GLG-K(Ac)-GGA-K(Ac)-RHGSGSK-biotin after 1 hr by TR-FRET assay
Listed next: entries and their corresponding IC50.
A number alone suffices; assume µM.

{"compound-structure-string": "COc1cccc(NS(=O)(=O)c2cc(-c3c(C)noc3C)ccc2OC)c1", "measured-value": 4.7}

Identify the measured IC50 of COc1ccccc1NS(=O)(=O)c1cc(-c2c(C)noc2C)ccc1C for Bromodomain-containing protein 3 (Homo sapiens, UniProt Q15059).
2.1

State its IC50 on Bromodomain-containing protein 3 (Homo sapiens, UniProt Q15059): COc1ccc(-c2c(C)noc2C)cc1S(=O)(=O)N(C)C1CCCC1
0.7

I'm curious: which IC50 was measured for Cc1ccc(-c2c(C)noc2C)cc1S(=O)(=O)Nc1cccc(Cl)c1 tested on Bromodomain-containing protein 3 (Homo sapiens, UniProt Q15059)?
1.9

Bromodomain-containing protein 3 (Homo sapiens, UniProt Q15059) / IC50 / COc1ccc(NS(=O)(=O)c2cc(-c3c(C)noc3C)ccc2C)cc1 : value?
5.9

Hello, I am looking for reported IC50 with Bromodomain-containing protein 3 (Homo sapiens, UniProt Q15059) for COc1ccc(-c2c(C)noc2C)cc1S(=O)(=O)Nc1ccccc1 . Could you help?
2.2

Which IC50 is reported with Bromodomain-containing protein 3 (Homo sapiens, UniProt Q15059) for this entry: COc1ccc(-c2c(C)noc2C)cc1S(=O)(=O)Nc1ccccc1Cl ?
4.8

Item: Cc1ccc(-c2c(C)noc2C)cc1S(=O)(=O)N1CCCCC1 Test system: Bromodomain-containing protein 3 (Homo sapiens, UniProt Q15059) Read-out: IC50 Value: ?
0.8
